Every entry's value here was drawn from PubChem BioAssay.

Item-by-item account of composite z-score
- Experiment notes: small-molecule microarray binders of probe aDKK1, primary screen, biochemical, biotinylated probe, 635/667 nm fluorescence (AID 1099);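 also: score merges 667nm spot fluorescence with signal to noise across triplicate slides; reference of the scale not given here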
- Protocol conditions: higher = more signal
Keep it simple and answer with nothing but the number.

Look over these answered cases.
Compound | Observed measurement
CCCN1C(=O)[C@]2(CCS(=O)(=O)c3ccccc3)N=C(c3ccc(OCCCO)cc3)O[C@@H]2c2ccccc21 | 0.0947
CCOC(=O)C[C@H]1[C@H](OC(=O)c2cc3ccccc3oc2=O)[C@@H](NC(=O)C2CCCCC2)c2cc(OCCCO)ccc2N1C(=O)c1ccccc1 | -0.23
CN(C)C(=O)[C@]1(Cc2ccccc2CN=[N+]=[N-])N=C(c2ccc(OCCCO)cc2)O[C@@H]1c1ccccc1CN=[N+]=[N-] | 0.423

[ask] Give the value of composite z-score reported for the following: CC(C)C[C@H]1NC(=O)[C@@]23C(=O)N[C@@H](Cc4ccccc4)C2[C@H](C)[C@@]2(C)O[C@H]2C3/C=C/C/C=C\CNC(=O)[C@H](Cc2ccccc2)NC1=O (some centres undefined)
[reply] -0.283
